B1: VAMP4 (parent)
chain: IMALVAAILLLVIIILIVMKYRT

variants of: B1; test: protein stability index of a GFP-peptide fusion (GPS, HEK-293T) (PSI 1-6); higher = more stable; settings: c terminus: native;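 also: lentivirally expressed fusions sorted by FACS into six bins by GFP to DsRed ratio, PSI derived from sequencing read proportions per bin multiplied by bin number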
Criterion: protein stability index meeting or surpassing 3. Met: satisfied. Not met: not satisfied.

K20C; satisfied

Query :: Test whether the variant L11Y records protein stability index of 3 or higher.
Result :: not satisfied

Query :: What do you get for L10I ?
Result :: satisfied

Query :: What do you get for M2S ?
Result :: satisfied
